- tested target: FGFR4 (Homo sapiens, UniProt P22455)
- Construct: made in house; host or cells: E. coli (BL21-derived), T7 phage
- Sequence (P22455 22-802): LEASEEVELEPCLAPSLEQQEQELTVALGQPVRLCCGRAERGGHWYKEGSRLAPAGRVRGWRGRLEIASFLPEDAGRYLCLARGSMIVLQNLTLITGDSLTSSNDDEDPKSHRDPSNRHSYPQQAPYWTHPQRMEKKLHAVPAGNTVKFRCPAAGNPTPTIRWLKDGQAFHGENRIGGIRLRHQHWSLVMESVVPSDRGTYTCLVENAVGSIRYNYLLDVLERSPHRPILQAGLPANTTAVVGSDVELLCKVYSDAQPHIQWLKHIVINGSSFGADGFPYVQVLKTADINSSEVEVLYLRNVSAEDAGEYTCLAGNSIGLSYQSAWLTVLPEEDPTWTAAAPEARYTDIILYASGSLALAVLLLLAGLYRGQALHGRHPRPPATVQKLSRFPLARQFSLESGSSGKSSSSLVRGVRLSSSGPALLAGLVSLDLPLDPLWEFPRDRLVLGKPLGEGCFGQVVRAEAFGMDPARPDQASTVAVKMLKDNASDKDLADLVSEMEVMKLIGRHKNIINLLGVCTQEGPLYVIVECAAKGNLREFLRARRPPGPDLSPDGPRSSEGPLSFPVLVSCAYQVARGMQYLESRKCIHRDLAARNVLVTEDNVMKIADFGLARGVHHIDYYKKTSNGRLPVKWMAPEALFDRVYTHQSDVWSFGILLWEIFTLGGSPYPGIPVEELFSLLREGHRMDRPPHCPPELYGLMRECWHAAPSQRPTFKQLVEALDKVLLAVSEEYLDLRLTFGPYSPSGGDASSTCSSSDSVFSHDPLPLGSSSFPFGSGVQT
- procedure details: Kinase binding assay (kinase-tagged T7 phage, affinity beads, qPCR), Kd
- run parameters: read-out: FGFR4 (Kd nM)
Recorded Kd for the following molecules

Would you please look over these solved cases?
[
  {
    "smiles record": "C[C@@H](O)CNC1(C)CN(c2ncc(-c3n[nH]c4ccc(O[C@H](C)c5c(Cl)cncc5Cl)c(F)c34)cc2F)C1",
    "tested target": "FGFR4 (Homo sapiens, UniProt P22455)",
    "Kd": "50 to 300 nM"
  },
  {
    "smiles record": "CC(C)NC1(C)CN(c2ncc(-c3n[nH]c4ccc(O[C@H](C)c5c(Cl)cncc5Cl)cc34)cc2F)C1",
    "tested target": "FGFR4 (Homo sapiens, UniProt P22455)",
    "Kd": "1 to 50 nM"
  },
  {
    "smiles record": "C[C@@H](Oc1ccc2[nH]nc(-c3ccc(N4CC(C)(N5CC6CC(C5)O6)C4)nc3)c2c1)c1c(Cl)cncc1Cl",
    "tested target": "FGFR4 (Homo sapiens, UniProt P22455)",
    "Kd": "1 to 50 nM"
  },
  {
    "smiles record": "C[C@@H](Oc1ccc2[nH]nc(-c3cnc(N4CC(C)(NCC5CC5)C4)c(F)c3)c2c1F)c1c(Cl)cncc1Cl",
    "tested target": "FGFR4 (Homo sapiens, UniProt P22455)",
    "Kd": "50 to 300 nM"
  }
]

# evaluate next
Read off the recorded Kd for "Cc1ncc(Cl)c([C@@H](C)Oc2ccc3[nH]nc(-c4ccc(N5CC(C)(NC6CCC6)C5)nc4)c3c2)c1Cl" 1 to 50 nM
